The reported numbers originate from ChEMBL document CHEMBL1921707.

Molecular target: Histamine H4 receptor (Homo sapiens, UniProt Q9H3N8, T323M)
Sequence (Q9H3N8 whole entry T323M): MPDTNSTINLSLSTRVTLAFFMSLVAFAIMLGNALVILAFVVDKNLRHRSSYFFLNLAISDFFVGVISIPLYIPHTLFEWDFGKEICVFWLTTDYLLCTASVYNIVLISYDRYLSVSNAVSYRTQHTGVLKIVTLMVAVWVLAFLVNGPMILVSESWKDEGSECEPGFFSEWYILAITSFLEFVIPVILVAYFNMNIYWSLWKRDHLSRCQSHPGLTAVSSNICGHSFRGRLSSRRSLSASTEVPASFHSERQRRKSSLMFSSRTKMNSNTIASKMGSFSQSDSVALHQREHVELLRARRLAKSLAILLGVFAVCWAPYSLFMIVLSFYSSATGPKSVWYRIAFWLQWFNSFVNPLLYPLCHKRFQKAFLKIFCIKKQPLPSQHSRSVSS
Test: Displacement of [3H]histamine from human H4 receptor T6.55M mutant expressed in HEK293 cells after 1 to 1.5 hrs by scintillation counting
pKi: −log10 of the molar value.

Compound: Clc1ccc(CN=C(NC2CCCCC2)SCCCc2cnc[nH]2)cc1
Target: Histamine H4 receptor (Homo sapiens, UniProt Q9H3N8, T323M)
pKi: 7.90

Compound: NC(=NCc1ccc(Cl)cc1)SCCCc1cnc[nH]1 [CLOBENPROPIT]
Target: Histamine H4 receptor (Homo sapiens, UniProt Q9H3N8, T323M)
pKi: 8.80

* * *

Molecular target: Histamine H3 receptor (Homo sapiens)
Sequence (Q9Y5N1 whole entry): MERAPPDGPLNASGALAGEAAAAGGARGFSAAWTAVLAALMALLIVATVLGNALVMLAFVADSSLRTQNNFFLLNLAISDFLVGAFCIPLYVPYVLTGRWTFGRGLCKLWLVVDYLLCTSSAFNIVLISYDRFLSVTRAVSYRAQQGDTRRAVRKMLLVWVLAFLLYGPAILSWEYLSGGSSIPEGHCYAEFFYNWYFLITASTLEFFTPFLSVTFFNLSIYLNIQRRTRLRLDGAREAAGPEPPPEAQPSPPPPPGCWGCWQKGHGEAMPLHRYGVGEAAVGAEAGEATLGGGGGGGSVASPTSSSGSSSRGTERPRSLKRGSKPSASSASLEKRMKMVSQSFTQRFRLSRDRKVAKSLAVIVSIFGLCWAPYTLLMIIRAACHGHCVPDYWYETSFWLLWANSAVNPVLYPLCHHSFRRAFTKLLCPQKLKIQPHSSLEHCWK

Query smiles: Clc1ccc(C/N=C(/NC2CCCCC2)SCCCc2c[nH]cn2)cc1Cl
Ki: 1.02 nM
//
Query smiles: CCCCN/C(=N/C1CCCC1)SCCCc1c[nH]cn1
Ki: 46.8 nM
//
Query smiles: CCCCN/C(=N/Cc1ccc(Cl)cc1)SCCCc1c[nH]cn1
Ki: 4.9 nM
//
Query smiles: Clc1ccc(C/N=C(/NCc2ccccc2)SCCCc2c[nH]cn2)cc1
Ki: 17 nM
//
Query smiles: Clc1ccc(C/N=C(/NCc2ccccc2)SCCCc2c[nH]cn2)cc1Cl
Ki: 32.4 nM
//
Query smiles: c1ccc(CN/C(=N/C2CCCC2)SCCCc2c[nH]cn2)cc1
Ki: 42.7 nM
//
Query smiles: O=[N+]([O-])c1ccc(C/N=C(/NC2CCCCC2)SCCCc2c[nH]cn2)cc1
Ki: 1.15 nM
//
Query smiles: c1nc(CCCS/C(=N\C2CCCC2)NC2CCCCC2)c[nH]1
Ki: 18.6 nM
